- TARGET UNDER TEST: Streptavidin (Streptomyces avidinii) (UniProt P22629)
- Sequence (P22629 whole entry, looked up): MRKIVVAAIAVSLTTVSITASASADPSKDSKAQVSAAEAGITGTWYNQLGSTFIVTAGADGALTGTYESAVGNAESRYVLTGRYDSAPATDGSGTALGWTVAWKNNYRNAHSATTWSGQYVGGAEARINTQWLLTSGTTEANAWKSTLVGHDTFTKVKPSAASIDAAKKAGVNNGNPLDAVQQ
- ASSAY REMARKS: compounds binding control protein streptavidin – biophysical, small-molecule microarray, 635/667 nm fluorescence, artefact control for SMM compound annotation, primary screen (AID 1147);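 note: signal reflects streptavidin binding to arrayed compounds as a control protein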
- CONDITION LABEL: higher = more signal
PARAMETER: composite z-score
Answer using only a numeral; do not append any unit.

{"MOLECULE": "CC(C)=CCCC(C)=CC(O)C1C=CC2C(=O)N(c3ccccc3)C(=O)C2N1Nc1ccc(C(C)C)cc1 (stereo not given)", "composite z-score": 1.33}
{"MOLECULE": "O[C@@H](Cc1ccccc1)[C@@H](/C=C/C1CC1)NCc1cccc(Cl)c1", "composite z-score": -1}
{"MOLECULE": "COc1ccc([C@H]2C[C@H]3C(Br)=C[C@@]2(CO)C(=O)[C@]32CO2)cc1", "composite z-score": -0.264}
{"MOLECULE": "COC(=O)[C@@]1(Cc2ccc(OC)cc2)[C@H]2c3cc(C(=O)N4CCCC4)n(Cc4nc5ccccc5[nH]4)c3C[C@H]2CN1C(=O)c1ccccc1", "composite z-score": 1.78}
{"MOLECULE": "C=CCN1C(=O)[C@]2(Cc3ccccc3)N=C(c3ccc(OCCCO)cc3)O[C@@H]2c2ccccc21", "composite z-score": 0.752}
{"MOLECULE": "COc1ccc(NC(=O)O[C@H]2[C@H](OC(=O)c3cc4ccccc4[nH]3)[C@@H](OC(=O)c3cc4ccccc4[nH]3)[C@@H](OC)O[C@@H]2CO)cc1", "composite z-score": -0.342}
{"MOLECULE": "C=C(CCCC)/C(=C/C[C@@H](OC(C)=O)c1cccc(OCCO)c1)c1cnc2ccccc2c1", "composite z-score": 0.0063}
{"MOLECULE": "CCCCC(=C=CC[C@@H](O)c1cccc(OCCO)c1)C[C@@H](O)c1ccccn1", "composite z-score": 1.5}

The measured composite z-score associated with COc1cc2c(cc1OC)CN(C(=O)[C@H]1[C@@H]3C(=O)O[C@@H](c4ccccc4)[C@@H](c4ccccc4)N3[C@@H](c3ccccc3OCCO)[C@]13C(=O)Nc1ccc(C#CCCO)cc13)CC2 reads 0.225

The measured composite z-score associated with O=C1O[C@@H](c2ccccc2)[C@@H](c2ccccc2)N2[C@@H](c3ccccc3OCCO)[C@]3(C(=O)Nc4ccccc43)[C@@H](C(=O)O)[C@H]12 reads 1.38

----------
- ASSAY REMARKS: JC-1 mitochondrial potential readout, lung cancer cells – cell-based, A549, JC-1 fluorescence, basal, 24 h, 100 nL, profiling panel (AID 1138);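 note: A549 lung adenocarcinoma cells under basal conditions with no added stimulus; test concentration not given here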
- CONDITION LABEL: higher = more signal
Each record here notes measured z-score.
Answer using only a numeral; do not append any unit.

Record excerpt, results attached:
{"MOLECULE": "COC(=O)[C@@]1(Cc2ccc(F)cc2)[C@H]2c3cc(C(=O)N(C)C)n(Cc4ccc(C)o4)c3C[C@H]2CN1C(=O)c1ccccc1", "z-score": 0.546}
{"MOLECULE": "COC(=O)c1c(CC[C@@H](CO)NC(=O)NCCc2c[nH]c3ccccc23)oc(C(=O)Cc2ccccc2)c1C(=O)OC", "z-score": -0.364}
{"MOLECULE": "O=C1OCCC/C=C\\[C@H]2OC34C=CCN(c5ccc6ccccc6c5)C(=O)[C@H]3N(CCCCCO)C(=O)[C@@H]4C12 (stereo not given in full)", "z-score": -0.168}
{"MOLECULE": "CCCNC(=O)[C@@H]1c2ccccc2C(=O)N(Cc2ccccc2OC)[C@H]1c1ccc(CO)cc1", "z-score": 1.53}

The measured z-score associated with COc1ccc([Si](C)(C)[C@@H]2[C@@H](CC(=O)N3CCC[C@H]3CO)O[C@]3(C(=O)N(Cc4cccc(I)c4)c4ccccc43)[C@H]2C)cc1 reads -0.77

The measured z-score associated with CC1CC/C=C\[C@H]2OC34C=CCN(c5ccc6ccccc6c5)C(=O)[C@H]3N(CCO)C(=O)[C@@H]4C2C(=O)O1 (stereo not given in full) reads -0.245

The measured z-score associated with O=C1[C@@]23C=C(Br)[C@H](C[C@@H]2COC3)[C@]12CO2 reads -0.096

The measured z-score associated with CN(C)CCCCCCNC(=O)[C@@H]1C[C@@H]2C(=O)N[C@@H](CCCC[N+](C)(C)C)C(=O)N2[C@@H]1c1ccc(O)cc1 reads -0.147

The measured z-score associated with CO[C@H]1O[C@H](CO)[C@@H](OC(=O)Nc2cccc(F)c2)[C@H](OC(=O)Nc2ccccc2)[C@H]1OC(=O)Nc1ccccc1 reads -1.18

Data provenance: PubChem BioAssay
